# Test system: neutral sphingomyelinase
# protocol_text: Sphingomyelinase Assay: neutral sphingomyelinase inhibition, release of 14C-phosphocholine from 14C-sphingomyelin, U937 cell lysate
# Type: biochemical
# test_conditions: highest concentration tested (100 uM); IC50 not determined; U937 cell lysate, 1 hour at 37
observation_type: percentage of enzyme inhibition

compound	target_system	observation_type	result
CC(C(=O)O)N(CCc1cccc2ccccc12)CCc1cccc2ccccc12 (stereo not shown) [Compound 25]	neutral sphingomyelinase	percentage of enzyme inhibition	< 5%
O=C(O)C(CO)N(CC#Cc1cccc2ccccc12)CC#Cc1cccc2ccccc12 (stereo not shown) [Compound 18]	neutral sphingomyelinase	percentage of enzyme inhibition	< 5%
C[C@@H](C(=O)O)N(C/C=C/c1ccnc2ccccc12)C/C=C/c1ccnc2ccccc12 [Compound 13]	neutral sphingomyelinase	percentage of enzyme inhibition	< 5%
C[C@@H](O)[C@@H](C(=O)O)N(C/C=C/c1cccc2ccccc12)C/C=C/c1cccc2ccccc12 [Compound 10]	neutral sphingomyelinase	percentage of enzyme inhibition	21%

* * *

# System: neutral sphingomyelinase
# protocol_text: Sphingomyelinase Assay: neutral sphingomyelinase inhibition, release of 14C-phosphocholine from 14C-sphingomyelin, U937 cell lysate
# Type: biochemical
# test_conditions: highest concentration tested (100 uM); IC50 not determined; U937 cell lysate, 1 hour at 37
Entries annotated with measured percentage of enzyme inhibition
observation_type: percentage of enzyme inhibition

compound	result
O=C(O)C(CO)N(Cc1cccc2ccccc12)Cc1cccc2ccccc12 (stereo not drawn) [Compound 21]	< 5%
COc1ccc(C#CCN(CC#Cc2ccc(OC)cc2)[C@@H](C)C(=O)O)cc1 [Compound 19]	27%
C[N+](C/C=C/c1cccc2ccccc12)(C/C=C/c1cccc2ccccc12)[C@@H](CO)C(=O)O [Compound 16]	24%
CC(C(=O)OC(C)(C)C)N(CC=Cc1ccnc2ccccc12)CC=Cc1ccnc2ccccc12 (stereo not drawn) [Compound 24]	< 5%
O=C(O)C(CO)N(CCc1cccc2ccccc12)CCc1cccc2ccccc12 (stereo not drawn) [Compound 22]	< 5%
CC(C(=O)O)N(Cc1cccc2ccccc12)Cc1cccc2ccccc12 (stereo not drawn) [Compound 20]	< 5%
